Data origin: the supplement of paper PMC8633005

tested on: FM-MEL-6; assay: drug sensitivity score (DSS) (DSS (unitless, 0-50 scale)); higher = more sensitive (stronger viability inhibition); extreme values may be limits of the assay; settings: 72 h; culture: 2D
The reader will find reported drug sensitivity score values listed item by item below.

Please look up its drug sensitivity score: COc1cc(N2CCC(N3CCN(C)CC3)CC2)ccc1Nc1ncnc(Nc2ccccc2S(=O)(=O)C(C)C)n1
4.4

Could you tell me which drug sensitivity score is on file for Cc1ccc(-c2cc(C(F)(F)F)nn2-c2ccc(S(N)(=O)=O)cc2)cc1 ?
0

What does the data say about its drug sensitivity score? Entry: O=c1sn(-c2cccc3ccccc23)c(=O)n1Cc1ccccc1
0

Recorded drug sensitivity score of COc1cc(C(=O)O)ccc1NC(=O)[C@@H]1N[C@@H](CC(C)(C)C)[C@](C#N)(c2ccc(Cl)cc2F)[C@H]1c1cccc(Cl)c1F , please.
0.3

Dear colleague, I am looking for the recorded drug sensitivity score of the following compound: CCC/C=C/C=C/C(=O)O[C@H]1/C(=C/C(=O)OC)C[C@H]2C[C@H]([C@@H](C)O)OC(=O)C[C@H](O)C[C@@H]3C[C@H](OC(C)=O)C(C)(C)[C@](O)(C[C@@H]4C/C(=C/C(=O)OC)C[C@H](/C=C/C(C)(C)[C@]1(O)O2)O4)O3
5.8

Name the recorded drug sensitivity score for COC[C@H](NC(=O)c1cnc(C)s1)C(=O)N[C@@H](COC)C(=O)N[C@@H](Cc1ccccc1)C(=O)[C@@]1(C)CO1 .
19.4

// lookup drug sensitivity score for COc1cc([C@@H]2c3cc4c(cc3[C@@H](O[C@@H]3O[C@@H]5CO[C@@H](c6cccs6)O[C@H]5[C@H](O)[C@H]3O)[C@H]3COC(=O)[C@H]23)OCO4)cc(OC)c1O [Teniposide]
0

So what does the record say about drug sensitivity score for Cc1ccc(C(=O)Nc2ccc(CN3CCN(C)CC3)c(C(F)(F)F)c2)cc1C#Cc1cnc2cccnn12 ?
4.5

Could you share which drug sensitivity score value was measured for C=C1C[C@@H]2[C@H](CC[C@]3(C)C(=O)CC[C@@H]23)[C@@]2(C)C=CC(=O)C=C12 ?
0

Recorded drug sensitivity score for COC(=O)c1ccc2c(c1)NC(=O)/C2=C(\Nc1ccc(N(C)C(=O)CN2CCN(C)CC2)cc1)c1ccccc1 , please?
5.6

----------
Listed compounds paired with reported drug sensitivity score
system: Bowes; experiment: drug sensitivity score (DSS) (DSS (unitless, 0-50 scale)); higher = more sensitive (stronger viability inhibition); extreme values may be limits of the assay; conditions: 72 h; culture: 2D

Record request: drug sensitivity score value, item COc1cc2nccc(Oc3ccc(NC(=O)Nc4cc(C)on4)c(Cl)c3)c2cc1OC
2.8

State the recorded drug sensitivity score for this entry: CC(C)Cn1cnc2c(N)nc3ccccc3c21
4.7

Entry COc1cc(Nc2ncc(F)c(Nc3ccc4c(n3)NC(=O)C(C)(C)O4)n2)cc(OC)c1OC : reported drug sensitivity score = ?
1.3

Sample Nc1ncnc2c1nc(N)n2[C@@H]1O[C@H](CO)[C@@H](O)[C@H]1O — what was its drug sensitivity score?
16.3

Entry under review: C[C@]12C=CC(=O)C=C1CC[C@@H]1[C@@H]2[C@@H](O)C[C@@]2(C)[C@H]1CC[C@]2(O)C(=O)CO . Reported drug sensitivity score?
0

Others:
Entry under review: C[C@H](Nc1ncnc2nc[nH]c12)c1cc2cccc(Cl)c2c(=O)n1-c1ccccc1 . Reported drug sensitivity score?
0

Query (compound): N#CC[C@H](C1CCCC1)n1cc(-c2ncnc3[nH]ccc23)cn1 ; field requested: drug sensitivity score
0.1

I'd like to know its drug sensitivity score. The compound in question is O=C1NC(=O)[C@@H](c2cn3c4c(cccc24)CCC3)[C@@H]1c1c[nH]c2ccccc12 [Tivantinib]
3.6

For the compound shown here, C[C@]1(O)C[C@@H](c2nc(-c3ccc4ccc(-c5ccccc5)nc4c3)c3c(N)nccn32)C1 , give the reported drug sensitivity score.
0

Consider the compound C/C(=C\c1csc(C)n1)[C@@H]1C[C@@H]2O[C@]2(C)CCC[C@H](C)[C@H](O)[C@@H](C)C(=O)C(C)(C)[C@@H](O)CC(=O)N1 [Ixabepilone] and give its measured drug sensitivity score.
8.5

Given CCC1=C[C@@H]2CN(C1)Cc1c([nH]c3ccccc13)[C@@](C(=O)OC)(c1cc3c(cc1OC)N(C)[C@H]1[C@@](O)(C(=O)OC)[C@H](OC(C)=O)[C@]4(CC)C=CCN5CC[C@]31[C@@H]54)C2 , state its recorded drug sensitivity score.
31.6

I am curious: what drug sensitivity score value has been reported for CO[C@H]1C[C@@H]2CC[C@@H](C)[C@@](O)(O2)C(=O)C(=O)N2CCCC[C@H]2C(=O)O[C@H]([C@H](C)C[C@@H]2CC[C@@H](OC(=O)C(C)(CO)CO)[C@H](OC)C2)CC(=O)[C@H](C)/C=C(\C)[C@@H](O)[C@@H](OC)C(=O)[C@H](C)C[C@H](C)/C=C/C=C/C=C/1C ?
0

Please give the measured drug sensitivity score for this compound: NCC(=O)Nc1ccc(-n2nc(C(F)(F)F)cc2-c2ccc3c(ccc4ccccc43)c2)cc1
0

Fill in the blank: the reported drug sensitivity score of COc1cc2c(N3CCN(C(=O)Nc4ccc(OC(C)C)cc4)CC3)ncnc2cc1OCCCN1CCCCC1 is ____.
0
